Where do the numbers come from? From patent US7704995B2.

- test.target: Chk1 (Homo sapiens, UniProt O14757)
- Construct: purchased Upstate Biotechnology
- Sequence (O14757 1-476): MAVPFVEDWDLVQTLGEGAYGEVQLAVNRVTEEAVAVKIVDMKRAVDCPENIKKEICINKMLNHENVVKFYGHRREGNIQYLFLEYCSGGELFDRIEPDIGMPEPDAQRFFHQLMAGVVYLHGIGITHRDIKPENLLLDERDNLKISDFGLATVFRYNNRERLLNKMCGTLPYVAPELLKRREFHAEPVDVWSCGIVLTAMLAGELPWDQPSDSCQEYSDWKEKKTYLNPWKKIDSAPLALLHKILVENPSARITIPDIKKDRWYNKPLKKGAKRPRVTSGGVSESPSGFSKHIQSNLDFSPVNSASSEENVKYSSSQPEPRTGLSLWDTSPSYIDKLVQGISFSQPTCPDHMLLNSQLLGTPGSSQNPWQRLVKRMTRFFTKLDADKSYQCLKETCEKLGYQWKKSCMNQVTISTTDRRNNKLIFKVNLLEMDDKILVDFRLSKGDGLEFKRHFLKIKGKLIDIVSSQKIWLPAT
- protocol: Chk1 kinase assay: incorporation of γ-33P ATP into immobilized myelin basic protein
- Format: biochemical
- test.parameters: Table 11; Chk1 only; read-out: Chk1 IC50
pIC50: −log10 of the molar value.
reported.metric: pIC50

Known pIC50 results, listed for orientation:
C/C(=N\N(C)c1ccccc1)c1nc(-c2cccc(C(=O)NCc3ccccc3)c2)cnc1N | 5.00 to 6.00
CNC(=O)c1nc(-c2cc(C(=O)N[C@@H]3CCNC3)cc(C(=O)N[C@@H]3CCc4ccccc43)c2)cnc1N | 6.00 to 7.30
CNC(=O)c1nc(-c2cccc(Cn3ccnc3)c2)cnc1N | 6.00 to 7.30
Nc1ncc(-c2cccc(CN[C@H]3CCc4ccccc43)c2)nc1-c1nc(-c2ccncc2)n[nH]1 | > 7.30
CNC(=O)c1nc(-c2cccc(CNC3COc4ccccc43)c2)cnc1N (centres unmarked) | 6.00 to 7.30
Cn1nc(-c2nc(-c3cccc(C(=O)NCc4ccccc4)c3)cnc2N)nc1C1CCCCN1 (centres unmarked) | ≤ 5.00

For this compound ( "CN1CCN(C(=O)c2nc(-c3cccc(C(=O)NCc4ccccc4)c3)cnc2N)CC1" ), measured pIC50 is ≤ 5.00

Reported pIC50 ( "CC(C)(C)OC(=O)N1CC[C@H](NC(=O)c2nc(-c3cccc(C(=O)NCc4ccccn4)c3)cnc2N)C1" ) = 5.00 to 6.00

Quick note, pIC50 for Nc1ncc(-c2cccc(CO)c2)nc1-c1nc(C2CCCNC2)n[nH]1 (centres unmarked) landed at 6.00 to 7.30

Value of measured pIC50 for the entry CNC(=O)c1nc(-c2cccc(CNC(CN(C)C)c3ccccc3)c2)cnc1N (centres unmarked) : 6.00 to 7.30

# pIC50 of "Nc1ncc(-c2cccc(C(=O)NCc3ccc(OC(F)(F)F)cc3)c2)nc1C(=O)N[C@H]1CCNC1" = > 7.30
